- measurement_target: soybean 7S globulin (7S; β-conglycinin) (Glycine max, UniProt P0DO16+P11827+P25974)
- Construct: gene CG-1; mature trimers of α, α’ and β, 150-180 kDa
- Sequence (P11827 63-621): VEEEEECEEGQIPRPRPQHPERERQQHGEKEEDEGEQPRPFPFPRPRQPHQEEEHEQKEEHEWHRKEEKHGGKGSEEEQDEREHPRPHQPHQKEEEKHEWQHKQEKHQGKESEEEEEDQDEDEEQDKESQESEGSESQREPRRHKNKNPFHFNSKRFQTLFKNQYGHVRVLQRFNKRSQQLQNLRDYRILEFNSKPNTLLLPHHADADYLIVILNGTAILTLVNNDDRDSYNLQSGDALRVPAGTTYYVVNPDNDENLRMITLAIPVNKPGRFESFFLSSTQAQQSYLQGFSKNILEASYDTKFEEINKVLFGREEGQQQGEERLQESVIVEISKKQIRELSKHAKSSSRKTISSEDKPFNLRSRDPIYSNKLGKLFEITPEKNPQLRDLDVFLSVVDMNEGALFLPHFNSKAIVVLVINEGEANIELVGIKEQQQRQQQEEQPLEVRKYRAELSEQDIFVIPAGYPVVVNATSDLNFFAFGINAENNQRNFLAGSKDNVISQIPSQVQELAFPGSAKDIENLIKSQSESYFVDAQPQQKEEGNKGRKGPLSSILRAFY
- Sequence (P0DO16 63-605): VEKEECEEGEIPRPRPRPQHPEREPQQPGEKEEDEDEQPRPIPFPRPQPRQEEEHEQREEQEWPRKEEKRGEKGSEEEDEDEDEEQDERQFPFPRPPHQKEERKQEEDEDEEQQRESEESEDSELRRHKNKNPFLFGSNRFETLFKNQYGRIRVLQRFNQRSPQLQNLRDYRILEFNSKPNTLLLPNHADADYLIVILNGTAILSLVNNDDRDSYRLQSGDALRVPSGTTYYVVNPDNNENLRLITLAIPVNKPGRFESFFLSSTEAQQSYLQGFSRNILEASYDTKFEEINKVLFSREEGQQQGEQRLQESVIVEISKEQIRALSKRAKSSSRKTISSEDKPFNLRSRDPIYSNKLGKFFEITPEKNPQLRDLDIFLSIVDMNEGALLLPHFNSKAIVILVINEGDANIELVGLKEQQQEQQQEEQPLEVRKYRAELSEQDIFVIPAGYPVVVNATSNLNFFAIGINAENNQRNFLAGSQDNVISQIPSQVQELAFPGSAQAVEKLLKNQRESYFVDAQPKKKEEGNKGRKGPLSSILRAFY
- Sequence (P25974 24-439): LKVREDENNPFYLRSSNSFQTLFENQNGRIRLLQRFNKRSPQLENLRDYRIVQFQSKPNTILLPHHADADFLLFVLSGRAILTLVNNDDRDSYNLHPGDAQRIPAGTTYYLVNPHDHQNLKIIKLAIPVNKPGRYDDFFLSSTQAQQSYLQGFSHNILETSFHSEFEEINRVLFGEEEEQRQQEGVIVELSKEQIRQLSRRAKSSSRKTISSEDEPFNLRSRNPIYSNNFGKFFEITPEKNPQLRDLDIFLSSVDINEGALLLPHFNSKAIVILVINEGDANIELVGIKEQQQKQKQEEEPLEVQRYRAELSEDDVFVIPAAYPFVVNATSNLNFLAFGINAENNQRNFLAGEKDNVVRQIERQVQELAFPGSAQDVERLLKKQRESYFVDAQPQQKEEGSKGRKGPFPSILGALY
- protocol_notes: isothermal titration calorimetry, one-site model
- Type: binding
- reported_conditions: 10 mM phosphate pH 7.0, 25 °C; 10 μM 7S, 5 mM ligand; N = 7.23 sites
test_readout: Kd

Summary: O=C(/C=C/c1ccc(O)c(O)c1)O[C@@H]1C[C@](O)(C(=O)O)C[C@@H](O)[C@H]1O , soybean 7S globulin (7S; β-conglycinin) (Glycine max, UniProt P0DO16+P11827+P25974), Kd = 444 µM

----------
- measurement_target: soybean 7S globulin (7S; β-conglycinin) (Glycine max, UniProt P0DO16+P11827+P25974)
- Construct: gene CG-1; mature trimers of α, α’ and β, 150-180 kDa
- protocol_notes: isothermal titration calorimetry, one-site model
- Assay type: binding
- reported_conditions: 10 mM phosphate pH 7.0, 25 °C; 10 μM 7S, 5 mM ligand; N = 10.0 sites
test_readout: Kd
Form entry: enter the amount, then its unit.

Data point: O=C(O)c1cc(O)c(O)c(O)c1 [GA, gallic acid] ; Kd = 720 µM

----------
- measurement_target: soybean 7S globulin (7S; β-conglycinin) (Glycine max, UniProt P0DO16+P11827+P25974)
- Construct: gene CG-1; mature trimers of α, α’ and β, 150-180 kDa
- protocol_notes: isothermal titration calorimetry, one-site model
- Type: binding
- reported_conditions: 10 mM phosphate pH 7.0, 25 °C; 5 μM 7S, 5 mM ligand; N = 1.68 sites
test_readout: pKd
Convention used: pKd is expressed as -log10 of the molar concentration.

// pKd lookup, compound = O=C(O[C@@H]1Cc2c(O)cc(O)cc2O[C@@H]1c1cc(O)c(O)c(O)c1)c1cc(O)c(O)c(O)c1 [EGCG, (−)-epigallocatechin gallate] , result: 3.31
